System: DERL-7 (IL-2 2.5 ng/mL)
Experiment: percent inhibition of viability; higher = more inhibition
Settings: 72 h; 10000 nM
Decision: percent inhibition of viability beneath 70% gives yes; percent inhibition of viability meeting or exceeding 70% gives no.

{"columns": ["COMPOUND", "CAT"],
 "data": [
  ["COc1cc2c(NC3CCN(C(C)C)CC3)nc(N3CCC(F)(F)CC3)nc2cc1OCCCN1CCCC1 [UNC0642] (max concentration tested 10000 nM)", "no"],
  ["C=CCNC1=C2C[C@@H](C)C[C@H](OC)[C@H](O)[C@@H](C)/C=C(\\C)[C@H](OC(N)=O)[C@@H](OC)/C=C\\C=C(/C)C(=O)NC(=CC1=O)C2=O [Tanespimycin] (max concentration tested 10000 nM)", "no"],
  ["COc1cc(N2CCC(N3CCN(C)CC3)CC2)ccc1Nc1ncnc(Nc2ccccc2S(=O)(=O)C(C)C)n1 [ASP3026] (max concentration tested 10000 nM)", "yes"],
  ["Cc1ccc(NC(=O)c2ccc(CN3CCN(C)CC3)cc2)cc1Nc1nc(-c2cccnc2)cs1 [Masitinib] (max concentration tested 10000 nM)", "no"],
  ["CC[C@H](Nc1ncnc2[nH]cnc12)c1nc2cccc(F)c2c(=O)n1-c1ccccc1 [Idelalisib] (max concentration tested 10000 nM)", "yes"],
  ["CS(=O)(=O)c1ccc(C(=O)Nc2ccc(Cl)c(-c3ccccn3)c2)c(Cl)c1 [Vismodegib] (max concentration tested 10000 nM)", "yes"]
]}

----------
System: normal NK cells expanded with K562-aAPC
Assay: drug sensitivity score (DSS) (DSS units); higher = more sensitive; extreme values may be limits of the assay
Details: 72 h; IL-2 2.5 ng/mL
Measured drug sensitivity score by item

{"columns": ["MOLECULE", "drug sensitivity score"],
 "data": [
  ["CCn1c(=O)c(-c2cc[nH]n2)cc2c(C)nc(N)nc21 [Voxtalisib] (max concentration tested 10000 nM)", 7.48],
  ["CNC(=O)c1cc(Oc2ccc(NC(=O)Nc3ccc(Cl)c(C(F)(F)F)c3)c(F)c2)ccn1 [Regorafenib] (max concentration tested 10000 nM)", 0.41],
  ["C[C@@H]1CCN(C(=O)CC#N)C[C@@H]1N(C)c1ncnc2[nH]ccc12 [Tofacitinib] (max concentration tested 5000 nM)", 20.7],
  ["Cc1cc(C)c(/C=C2\\C(=O)Nc3ccccc32)[nH]1 [Semaxanib] (max concentration tested 10000 nM)", 0],
  ["C[C@@]1(C(=O)Nc2ccc(F)nc2)CCCN1c1nc(Nc2cc(C3CC3)n[nH]2)c2cccn2n1 (max concentration tested 10000 nM)", 7.77],
  ["CNC(=O)c1ccc(-c2cnc3ncc(Cc4ccc5ncccc5c4)n3n2)cc1F [NVP-INC280] (max concentration tested 1000 nM)", 0.67],
  ["Nc1cc(C(F)(F)F)c(-c2cc(N3CCOCC3)nc(N3CCOCC3)n2)cn1 [Buparlisib] (max concentration tested 10000 nM)", 7.15],
  ["COc1cc(OC2CCN(C)CC2)ccc1Nc1ncc2c(n1)n(C1CCCC1)c(=O)n2C [AZ 3146] (max concentration tested 10000 nM)", 5.96],
  ["O=c1[nH]cc(F)c(=O)[nH]1 [Fluorouracil] (max concentration tested 10000 nM)", 2.24],
  ["CN1CCN(c2ccc3nc(-c4c(N)c5c(F)cccc5[nH]c4=O)[nH]c3c2)CC1 [Dovitinib] (max concentration tested 10000 nM)", 0],
  ["C=CC(=O)N1CCC[C@@H](n2nc(-c3ccc(Oc4ccccc4)cc3)c3c(N)ncnc32)C1 [Ibrutinib] (max concentration tested 1000 nM)", 0],
  ["CC(=O)O[C@@]12CO[C@@H]1C[C@H](O)[C@@]1(C)C(=O)[C@H](O)C3=C(C)[C@@H](OC(=O)[C@H](O)[C@@H](NC(=O)OC(C)(C)C)c4ccccc4)C[C@@](O)([C@@H](OC(=O)c4ccccc4)[C@H]21)C3(C)C [Docetaxel] (max concentration tested 1000 nM)", 16.8]
]}

----------
System: normal primary NK cells, pool 1 (3 donors) (IL-2 2.5 ng/mL)
Test: percent inhibition of viability; higher = more inhibition
Details: 72 h; 1000 nM
ATTRIBUTE MEASURED: percent inhibition of viability (%)

{"columns": ["COMPOUND", "REPORTED MEASUREMENT"],
 "data": [
  ["N#Cc1ccc(C(c2ccc(C#N)cc2)n2cncn2)cc1 [Letrozole] (max concentration tested 10000 nM)", 3.66],
  ["Cn1cc(-c2ccc3nnc(C(F)(F)c4ccc5ncccc5c4)n3n2)cn1 (max concentration tested 10000 nM)", -1.21],
  ["NC(=O)N1CCC(CC(=O)N2CCC([C@H]3c4ncc(Br)cc4CCc4cc(Cl)cc(Br)c43)CC2)CC1 [Lonafarnib] (max concentration tested 10000 nM)", 19.4],
  ["Nc1cc(C(F)(F)F)c(-c2cc(N3CCOCC3)nc(N3CCOCC3)n2)cn1 [Buparlisib] (max concentration tested 10000 nM)", 4.32],
  ["CNC(=O)c1ccc(-c2cnc3ncc(Cc4ccc5ncccc5c4)n3n2)cc1F [NVP-INC280] (max concentration tested 1000 nM)", -1.86],
  ["COc1cc(C(=O)O)ccc1NC(=O)[C@@H]1N[C@@H](CC(C)(C)C)[C@](C#N)(c2ccc(Cl)cc2F)[C@H]1c1cccc(Cl)c1F [RG7388] (max concentration tested 10000 nM)", 90.3],
  ["CCc1cc2c(cc1N1CCC(N3CCOCC3)CC1)C(C)(C)c1[nH]c3cc(C#N)ccc3c1C2=O [Alectinib] (max concentration tested 1000 nM)", 0.6],
  ["O=C(/C=C/c1cccc(S(=O)(=O)Nc2ccccc2)c1)NO [Belinostat] (max concentration tested 10000 nM)", 96.4],
  ["CN1CCC(COc2cnc(-c3cccc(Cn4nc(-c5cccc(C#N)c5)ccc4=O)c3)nc2)CC1 (max concentration tested 1000 nM)", 4.06],
  ["Cc1ccccc1C(C(=O)NC1CCCCC1)N(C(=O)Cn1ccnc1C)c1cccc(F)c1 (configuration not stated) [AGI-5198] (max concentration tested 10000 nM)", -8.59],
  ["Cc1sc2c(c1C)C(c1ccc(Cl)cc1)=N[C@@H](CC(=O)OC(C)(C)C)c1nnc(C)n1-2 [(+)JQ1] (max concentration tested 10000 nM)", 56.9],
  ["CC1(C)CNc2cc(NC(=O)c3cccnc3NCc3ccncc3)ccc21 [Motesanib] (max concentration tested 10000 nM)", 2.82]
]}

----------
Test system: NKL (IL-2 2.5 ng/mL)
Assay: percent inhibition of viability; higher = more inhibition
Settings: 72 h; 1 nM

{"columns": ["MOLECULE", "UNITS SYMBOL", "percent inhibition of viability"],
 "data": [
  ["CCCCc1nc2cc(/C=C/C(=O)NO)ccc2n1CCN(CC)CC [Pracinostat] (max concentration tested 10000 nM)", "%", -9.49],
  ["N#Cc1ccc(COC[C@H]2O[C@@H](n3c(NCc4ccc(Cl)c(Cl)c4)nc4c(N)ncnc43)[C@H](O)[C@@H]2O)cc1 (max concentration tested 10000 nM)", "%", 4.1],
  ["O=C(Nc1cccc(Nc2ncc(Br)c(NCCc3cnc[nH]3)n2)c1)N1CCCC1 [BX-912] (max concentration tested 10000 nM)", "%", -14.9],
  ["C=CC(=O)N1CCC[C@@H](n2nc(-c3ccc(Oc4ccccc4)cc3)c3c(N)ncnc32)C1 [Ibrutinib] (max concentration tested 1000 nM)", "%", 0.29],
  ["C[C@@]1(C(=O)Nc2ccc(F)nc2)CCCN1c1nc(Nc2cc(C3CC3)n[nH]2)c2cccn2n1 (max concentration tested 10000 nM)", "%", -16.6],
  ["CNC(=O)c1cccc(-c2ccc3c(N4CCOC[C@@H]4C)nc(N4CCOC[C@@H]4C)nc3n2)c1 [AZD2014] (max concentration tested 10000 nM)", "%", 8.6],
  ["CS(=O)(=O)c1ccc(-c2cnc(N)c(C(=O)Nc3ccccc3)n2)cc1 [VE-821] (max concentration tested 10000 nM)", "%", -16.3],
  ["O=C(Nc1ccc(-c2ccnc(Nc3ccc(N4CCOCC4)cc3)n2)cc1)C1CCCN1 (centres undefined) [XL019] (max concentration tested 10000 nM)", "%", -2.13],
  ["Nc1nccc(-c2c(-c3ccc(F)cc3)ncn2C2CCCCC2)n1 (max concentration tested 10000 nM)", "%", -2.84],
  ["Cc1cc(C)c(CNC(=O)c2cc(-c3ccc(CN4CCOCC4)cc3)cc3c2cnn3C2CCCC2)c(=O)[nH]1 [EPZ-5687] (max concentration tested 10000 nM)", "%", -7.92],
  ["C[C@@H](Oc1cc(-n2cnc3ccc(CN4CCN(C)CC4)cc32)sc1C(N)=O)c1ccccc1C(F)(F)F (max concentration tested 10000 nM)", "%", -22.4],
  ["O=C(/C=C/c1cccc(S(=O)(=O)Nc2ccccc2)c1)NO [Belinostat] (max concentration tested 10000 nM)", "%", 5.5],
  ["N#Cc1ccc(C(c2ccc(C#N)cc2)n2cncn2)cc1 [Letrozole] (max concentration tested 10000 nM)", "%", -6.26],
  ["O=C(Cc1ccc(-c2ccc(OCCN3CCOCC3)cc2)cn1)NCc1ccccc1 [KX2-391] (max concentration tested 10000 nM)", "%", -12.7],
  ["CC(C)c1cc(-c2n[nH]c(=O)n2-c2ccc3c(ccn3C)c2)c(O)cc1O [Ganetespib] (max concentration tested 1000 nM)", "%", 1.19],
  ["Nc1ncn([C@@H]2O[C@H](CO)[C@@H](O)[C@H]2O)c(=O)n1 [Azacitidine] (max concentration tested 10000 nM)", "%", -16.7],
  ["COc1cc(OC2CCN(C)CC2)ccc1Nc1ncc2c(n1)n(C1CCCC1)c(=O)n2C [AZ 3146] (max concentration tested 10000 nM)", "%", -14.9],
  ["O=C(c1ccc(OCCN2CCCCC2)cc1)c1c(-c2ccc(O)cc2)sc2cc(O)ccc12 [Raloxifene] (max concentration tested 10000 nM)", "%", 1.76],
  ["N#CC[C@H](C1CCCC1)n1cc(-c2ncnc3[nH]ccc23)cn1 [Ruxolitinib] (max concentration tested 10000 nM)", "%", -1.94],
  ["CS(=O)(=O)c1ccc(C(=O)Nc2ccc(Cl)c(-c3ccccn3)c2)c(Cl)c1 [Vismodegib] (max concentration tested 10000 nM)", "%", -2.06],
  ["CN1CCC(COc2cnc(-c3cccc(Cn4nc(-c5cccc(C#N)c5)ccc4=O)c3)nc2)CC1 (max concentration tested 1000 nM)", "%", -14.9],
  ["CCc1cncnc1N1CCN(Cc2nc3ccc(C(F)(F)F)cc3[nH]2)CC1 (max concentration tested 10000 nM)", "%", -11.3],
  ["CC(=O)O[C@H]1C(=O)[C@@]2(C)[C@H]([C@H](OC(=O)c3ccccc3)[C@]3(O)C[C@H](OC(=O)[C@H](O)[C@@H](NC(=O)c4ccccc4)c4ccccc4)C(C)=C1C3(C)C)[C@]1(OC(C)=O)CO[C@@H]1C[C@@H]2O [Paclitaxel] (max concentration tested 1000 nM)", "%", -11.8],
  ["Nc1ccccc1NC(=O)c1ccc(CNC(=O)OCc2cccnc2)cc1 [Entinostat] (max concentration tested 10000 nM)", "%", -7.74]
]}
